What follows is a collection of IC50 values obtained with Neprilysin (Homo sapiens, UniProt P08473).
Sequence (P08473 whole entry): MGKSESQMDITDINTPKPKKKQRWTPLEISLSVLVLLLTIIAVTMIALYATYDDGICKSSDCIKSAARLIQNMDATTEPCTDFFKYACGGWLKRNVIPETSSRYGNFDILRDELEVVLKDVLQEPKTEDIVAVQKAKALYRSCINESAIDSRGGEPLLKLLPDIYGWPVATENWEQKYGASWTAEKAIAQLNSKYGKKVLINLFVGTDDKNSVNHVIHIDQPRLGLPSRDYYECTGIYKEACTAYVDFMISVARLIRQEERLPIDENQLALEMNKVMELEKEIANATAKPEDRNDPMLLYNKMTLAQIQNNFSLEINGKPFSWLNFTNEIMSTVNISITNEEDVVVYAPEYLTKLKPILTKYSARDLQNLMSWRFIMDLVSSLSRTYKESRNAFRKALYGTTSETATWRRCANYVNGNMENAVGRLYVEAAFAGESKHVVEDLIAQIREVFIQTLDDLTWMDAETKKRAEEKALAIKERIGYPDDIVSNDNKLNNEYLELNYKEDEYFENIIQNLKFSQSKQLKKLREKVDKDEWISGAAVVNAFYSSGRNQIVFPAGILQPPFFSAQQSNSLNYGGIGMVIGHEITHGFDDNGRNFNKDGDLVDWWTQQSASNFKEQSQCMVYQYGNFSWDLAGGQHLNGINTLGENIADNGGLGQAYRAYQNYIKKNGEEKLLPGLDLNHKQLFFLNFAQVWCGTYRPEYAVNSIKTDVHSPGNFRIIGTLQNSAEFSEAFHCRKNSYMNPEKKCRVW
MEASURED METRIC: IC50 (nM)

Below: 4 compounds and their reported IC50.
O=C(O)CN1C(=O)[C@@H](NC(=O)[C@@H](S)Cc2ccccc2)CSc2ccccc21	64
C[C@H](NC(=O)[C@@H](S)Cc1ccccc1)C(=O)N1CCC[C@H]1C(=O)O	400
O=C(O)CN1C(=O)[C@@H](NC(=O)[C@@H](S)Cc2ccccc2)CCc2ccccc21	6.1
O=C(O)CN1C(=O)[C@@H](NC(=O)[C@@H](CS)Cc2ccccc2)COc2ccccc21	0.6

I. C[C@H](NC(=O)[C@@H](CS)Cc1ccccc1)C(=O)N1CCC[C@H]1C(=O)O
II. O=C(O)CN1C(=O)[C@@H](NC(=O)[C@@H](CS)Cc2ccccc2)CCc2ccccc21
III. O=C(O)CN1C(=O)[C@@H](NC(=O)[C@@H](CS)Cc2ccccc2)CSc2ccccc21
Could you please order the items by IC50, going from the lowest number to the highest? Use the labels to give the ranking in the order requested. III, II, I
(III: 1 nM, II: 2.1 nM, I: 6.6 nM)

---

Consider the following IC50 values measured on Angiotensin-converting enzyme (Homo sapiens).
Sequence (P12821 whole entry): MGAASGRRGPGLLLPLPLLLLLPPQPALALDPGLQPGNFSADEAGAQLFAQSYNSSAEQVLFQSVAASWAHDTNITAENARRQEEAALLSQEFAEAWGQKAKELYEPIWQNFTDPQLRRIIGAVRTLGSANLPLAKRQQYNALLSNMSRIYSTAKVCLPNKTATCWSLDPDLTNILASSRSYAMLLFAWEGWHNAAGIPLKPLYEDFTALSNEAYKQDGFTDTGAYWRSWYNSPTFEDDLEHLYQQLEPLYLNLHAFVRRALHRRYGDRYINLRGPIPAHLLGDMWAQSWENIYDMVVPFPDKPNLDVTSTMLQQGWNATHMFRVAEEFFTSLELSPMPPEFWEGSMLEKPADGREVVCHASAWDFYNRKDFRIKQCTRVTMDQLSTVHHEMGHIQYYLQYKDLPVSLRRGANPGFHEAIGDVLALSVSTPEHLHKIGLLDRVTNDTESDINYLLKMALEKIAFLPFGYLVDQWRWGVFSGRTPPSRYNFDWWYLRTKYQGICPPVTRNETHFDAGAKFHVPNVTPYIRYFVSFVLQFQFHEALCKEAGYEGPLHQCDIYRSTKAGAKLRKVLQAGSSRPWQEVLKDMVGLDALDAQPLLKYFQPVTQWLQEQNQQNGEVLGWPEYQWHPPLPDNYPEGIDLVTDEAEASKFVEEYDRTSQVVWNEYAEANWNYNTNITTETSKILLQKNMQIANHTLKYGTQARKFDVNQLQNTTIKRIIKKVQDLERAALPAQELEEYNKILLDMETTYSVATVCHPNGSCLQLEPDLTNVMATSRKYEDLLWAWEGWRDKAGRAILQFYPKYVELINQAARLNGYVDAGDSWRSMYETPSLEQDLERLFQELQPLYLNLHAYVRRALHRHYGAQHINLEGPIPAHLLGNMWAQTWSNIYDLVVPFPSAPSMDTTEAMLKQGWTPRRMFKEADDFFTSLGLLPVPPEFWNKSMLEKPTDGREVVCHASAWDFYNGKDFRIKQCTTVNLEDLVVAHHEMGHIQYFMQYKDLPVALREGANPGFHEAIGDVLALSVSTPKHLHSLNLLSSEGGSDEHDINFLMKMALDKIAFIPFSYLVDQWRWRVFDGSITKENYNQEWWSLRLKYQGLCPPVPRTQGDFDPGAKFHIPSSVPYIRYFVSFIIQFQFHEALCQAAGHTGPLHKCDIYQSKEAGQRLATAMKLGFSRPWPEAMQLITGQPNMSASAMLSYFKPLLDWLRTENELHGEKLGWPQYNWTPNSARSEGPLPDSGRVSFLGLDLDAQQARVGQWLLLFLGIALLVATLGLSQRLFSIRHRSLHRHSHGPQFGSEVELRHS
MEASURED METRIC: IC50 (nM)

Solved cases (5 shown):
C[C@H](NC(=O)[C@@H](S)Cc1ccccc1)C(=O)N1CCC[C@H]1C(=O)O	30
O=C(O)CCN1C(=O)[C@@H](NC(=O)[C@@H](CS)Cc2ccccc2)CCc2ccccc21	36
C[C@@H]1Oc2ccccc2N(CC(=O)O)C(=O)[C@H]1NC(=O)[C@@H](S)Cc1ccccc1	36
O=C(O)CN1C(=O)[C@@H](NC(=O)[C@@H](CS)Cc2ccccc2)COc2ccccc21	4.4
O=C(O)CN1C(=O)[C@@H](NC(=O)[C@@H](CS)Cc2ccccc2)CSc2ccccc21	17

a. C[C@H](NC(=O)[C@@H](CS)Cc1ccccc1)C(=O)N1CCC[C@H]1C(=O)O
b. C[C@H]1Oc2ccccc2N(CC(=O)O)C(=O)[C@H]1NC(=O)[C@@H](S)Cc1ccccc1
// compare: a vs b , metric IC50, want the smaller In your reply, give the label of the chosen option. a

---

# Tested on: Rattus norvegicus
# RUN DESCRIPTION: Tested in vivo for inhibition of angiotensin I -induced pressor response in normotensive rats after iv administration
# Type: functional
# key: entry, value: ED50
Report the figure in µmol/kg without appending any unit label.

Examples from the recorded data:
C[C@H](NC(=O)[C@@H](S)Cc1ccccc1)C(=O)N1CCC[C@H]1C(=O)O	0.06
O=C(O)CN1C(=O)[C@@H](NC(=O)[C@@H](CS)Cc2ccccc2)CCc2ccccc21	0.52
O=C(O)CN1C(=O)[C@@H](NC(=O)[C@@H](S)Cc2ccccc2)CSc2ccccc21	0.14

// ED50 lookup, key: "O=C(O)CCN1C(=O)[C@@H](NC(=O)[C@@H](S)Cc2ccccc2)CCc2ccccc21" 1.34

Bench note: what ED50 did "O=C(O)CCN1C(=O)[C@@H](NC(=O)[C@@H](S)Cc2ccccc2)CSc2ccccc21" show? 0.33

// lookup ED50 for "C[C@@H]1Oc2ccccc2N(CC(=O)O)C(=O)[C@H]1NC(=O)[C@@H](S)Cc1ccccc1" 2.1

Value lookup for ED50; key = "O=C(O)CN1C(=O)[C@@H](NC(=O)[C@@H](CS)Cc2ccccc2)COc2ccccc21" 5.8

---

# reported ED50; entries follow
# Tested on: Rattus norvegicus
# RUN DESCRIPTION: Tested in vivo for inhibition of angiotensin I -induced pressor response in normotensive rats after iv administration
# Assay type: functional
The reply should be a number in µmol/kg, with the unit left off.

O=C(O)CN1C(=O)[C@@H](NC(=O)[C@@H](S)Cc2ccccc2)CCc2ccccc21	0.02
O=C(O)CCN1C(=O)[C@@H](NC(=O)[C@@H](S)Cc2ccccc2)COc2ccccc21	1.2
C[C@H](NC(=O)[C@@H](CS)Cc1ccccc1)C(=O)N1CCC[C@H]1C(=O)O	0.5
C[C@H]1Oc2ccccc2N(CC(=O)O)C(=O)[C@H]1NC(=O)[C@@H](S)Cc1ccccc1	0.015
O=C(O)CCN1C(=O)[C@@H](NC(=O)[C@@H](CS)Cc2ccccc2)CCc2ccccc21	13.3
O=C(O)CN1C(=O)[C@@H](NC(=O)[C@@H](S)Cc2ccccc2)COc2ccccc21	0.26

// below: ED50 requested for another compound
Which measured ED50 value corresponds to "O=C(O)CN1C(=O)[C@@H](NC(=O)[C@@H](CS)Cc2ccccc2)CSc2ccccc21" ? 4
